# measurement protocol: qHTS assay to identify small molecule HDAC inhibitors (AID 1259364);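 also: wild-type HCT-116 cells with endogenous class I/II HDAC activity; nearly all actives have a fitted effect of over 45% in size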
# condition: HCT-116 HDAC-Glo I/II luminescence, 2 h; series mostly up to 92.4 µM
Results filed as inconclusive are left out. The source made the active and inactive calls. Calls follow the shape of the dose curve; as a rule, active = well fitted inhibition curve with a large enough effect in the repeat runs; inconclusive = weak or mixed curves; inactive = flat fitted curve, though single readings scatter.
Classes used: t = active, f = inactive

| compound | category label |
| --- | --- |
| c1coc(-c2nc3ccccc3[nH]2)c1 | t |
| O=[N+]([O-])c1ccc(CBr)cc1 | f |
| CCCCc1ccc(O)cc1 | f |
| CC(C)CC(N(C)C)C1(c2ccc(Cl)cc2)CCC1 (configuration not stated) | f |
| CN1CCC(N(Cc2ccccc2)c2ccccc2)CC1 | f |
| Cc1nnc2n1-c1sc(CCC(=O)N3CCOCC3)cc1C(c1ccccc1Cl)=NC2 | f |
| COC(=O)C(c1ccccc1)C1CCCCN1 (configuration not stated) | f |
| [Cl][Sn]([Cl])([Cl])[Cl] | f |
| CCCCP(CCCC)CCCC | f |
| CCOC(=O)N(C)C(=O)CSP(=S)(OCC)OCC | f |
| O=NN1CCCCC1 | f |
| Nc1c(Br)cc([N+](=O)[O-])cc1[N+](=O)[O-] | f |
| CC(C)[N+](=O)[O-] | f |
| O=[N+]([O-])c1cccc2cccnc12 | f |
| CCOC(=O)C1(c2ccccc2)CCN(CCc2ccc(N)cc2)CC1 | f |
| COc1cccc(C(=O)NN(C(=O)c2cc(C)cc(C)c2)C(C)(C)C)c1C | f |
| CC1(C)CON(Cc2ccccc2Cl)C1=O | f |
| CCC(Cl)[N+](=O)[O-] (configuration not stated) | f |
| CCC1(c2ccccc2)C(=O)N=C(O)NC1=O (configuration not stated) | f |
| COc1cc(OC)nc(NC(=O)NS(=O)(=O)c2ncccc2C(=O)N(C)C)n1 | f |
| O=C1CN=C(c2ccccc2)c2cc([N+](=O)[O-])ccc2N1 | f |
| CSc1nc(N=[N+]=[N-])nc(NC(C)C)n1 | f |
| CN(N=O)C(N)=O | f |
| C[C@]1(O)CC[C@H]2[C@@H]3CCC4=CC(=O)CC[C@]4(C)[C@@]3(F)[C@@H](O)C[C@@]21C | f |
| CCC/C(=N\OCC)C1=C(O)CC(CC(C)SCC)CC1=O (configuration not stated) | f |
| O=[N+]([O-])c1cc(Cl)c(Cl)c(Cl)c1 | f |
| CCCSP(=O)(OCC)Oc1ccc(Br)cc1Cl (configuration not stated) | f |

---

# measurement protocol: qHTS assay to identify small molecule agonists of the androgen receptor (AR) signaling pathway in the presence of an antagonist - cell viability counter screen (AID 1259379);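 also: MDA-kb2 human breast cancer cells carrying an MMTV luciferase reporter; % is scaled to controls: 0 for no effect and ±100 for the full control effect; nearly all actives have a fitted effect of over 25% in size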
# condition: MDA-kb2 viability, CellTiter-Fluor, 16 h; series mostly up to 92.4 µM
Records with an inconclusive call do not appear. Activity calls are given as the source filed them. Calls follow the shape of the dose curve; as a rule, active = well fitted cell-killing curve with a large enough effect in the repeat runs; inconclusive = weak or mixed curves, or effect the other way; inactive = flat fitted curve, though single readings scatter.

| compound | outcome |
| --- | --- |
| CC(Cl)(Cl)[N+](=O)[O-] | inactive |
| O=C(O)C(Br)CBr (stereo not drawn) | inactive |
| N#CCCC#N | inactive |
| O=[N+]([O-])c1ccc2c3c(cccc13)CC2 | inactive |
| CCOc1nc(C(Cl)(Cl)Cl)ns1 | inactive |
| C(CCOCC1CO1)COCC1CO1 (stereo not drawn) | inactive |
| CNC(=O)N(C)c1nc2ccccc2s1 | inactive |
| ClCC(Cl)(Cl)Cl | inactive |

---

# measurement protocol: qHTS RealTime-Glo MT Cell Viability Assay in HEK293 cells - 8 hour (AID 1224887); also: top concentration of the series differs between compounds; % is scaled to controls: 0 for no effect and ±100 for the full control effect; nearly all actives have a fitted effect of over 50% in size
# condition: RealTime-Glo luminescence; series mostly up to 76.8 µM
Results filed as inconclusive are left out. The source made the active and inactive calls. The call rests on the fitted dose curve; in most records, active means well fitted cell-killing curve with a large enough effect in the repeat runs; inconclusive means weak or mixed curves, or effect the other way; inactive means flat fitted curve, though single readings scatter.

| compound | outcome |
| --- | --- |
| [As]#[In] | inactive |
| CCCCOC(=O)c1ccccc1C(=O)O | inactive |
| COc1cc(OC)nc(NC(=O)NS(=O)(=O)c2ncccc2C(=O)N(C)C)n1 | inactive |
| Nc1ccccc1Cl | inactive |
| O=c1oc2ccccc2c(O)c1C1CCCc2ccccc21 (stereo unspecified) | inactive |
| C[C@]12CC[C@H]3[C@@H](CCC4=CC(=O)CC[C@@]43C)[C@@H]1CC[C@@H]2C(=O)O | inactive |

---

# measurement protocol: qHTS assay to identify small molecule agonists of the RXR signaling pathway - cell viability counter screen (AID 1159529); also: nearly all actives have a fitted effect of over 50% in size
# condition: RXR-alpha-bla HEK293T viability, CellTiter-Glo, 16 h; series mostly up to 76.8 µM
Inconclusive results are not listed. Activity calls are given as the source filed them. The call rests on the fitted dose curve; in most records, active means well fitted cell-killing curve with a large enough effect in the repeat runs; inconclusive means weak or mixed curves, or effect the other way; inactive means no such curve, though single readings can be large or run the other way.
Outcome codes: active, inactive

| compound | category label |
| --- | --- |
| ClCC(Cl)(Cl)Cl | inactive |
| Nc1ccccc1Cl | inactive |
| CNC(=O)Oc1ccccc1C1OCCO1 | inactive |
| CCC(C)(C)c1cc(-n2nc3ccccc3n2)c(O)c(C(C)(C)CC)c1 | inactive |
| COC(C)(C)C | inactive |
| CC1=NNC(=O)N(/N=C/c2cccnc2)C1 | inactive |
| Cc1cc(C)c(C(=O)P(=O)(C(=O)c2c(C)cc(C)cc2C)c2ccccc2)c(C)c1 | inactive |
| CCCCP(CCCC)CCCC | inactive |
| CC(C)CC(N(C)C)C1(c2ccc(Cl)cc2)CCC1 (stereo not given) | inactive |
| CCCCCCI | inactive |
| CNC(=O)O/N=C(\C)SC | inactive |
| C[N+](=O)[O-] | inactive |
| CCS(=O)(=O)C(C)(C)S(=O)(=O)CC | inactive |
| O=C(O)C(Br)CBr (stereo not given) | inactive |
| COP(=S)(OC)Oc1ccc(S(N)(=O)=O)cc1 | inactive |
| COc1cccc2c1cc([N+](=O)[O-])c1c(C(=O)O)cc3c(c12)OCO3 | active |
| CCS(=O)(=O)CCSP(=O)(OC)OC | inactive |
| O=[N+]([O-])c1cccc(O)c1 | inactive |
| CCc1cc2c(s1)-n1c(C)nnc1CN=C2c1ccccc1Cl | inactive |
| CCCCOC(=O)c1ccccc1C(=O)O | inactive |
| O=P(O)(Oc1ccccc1)Oc1ccccc1 | inactive |
| N#CCCC#N | inactive |
| COc1cc(OC)nc(Oc2cccc(Oc3nc(OC)cc(OC)n3)c2C(=O)O)n1 | inactive |
| CNC(=O)Oc1ccc(N(C)C)c(C)c1 | inactive |
| N#CC(O)c1ccccc1 (stereo not given) | inactive |
| Oc1c(Cl)cccc1Cl | inactive |
| CN1C[C@@H](NS(=O)(=O)N(C)C)C[C@@H]2c3cccc4c3c(cn4C)C[C@H]21 | inactive |
| C[N+](C)=CCl | inactive |
| CC(C(=O)c1ccccc1)N(C)C (stereo not given) | inactive |
| COC(=O)C1=CCCN(C)C1 | inactive |

---

# measurement protocol: qHTS assay to identify small molecule agonists of the hypoxia (HIF-1) signaling pathway (AID 1224846); also: % is scaled to controls: 0 for no effect and ±100 for the full control effect
# condition: HRE-bla ME-180 cells, beta-lactamase ratio, 17 h; series mostly up to 76.8 µM
Results filed as inconclusive are left out. The source made the active and inactive calls. The call rests on the fitted dose curve; in most records, active means well fitted activation curve with a large enough effect in the signal ratio in the repeat runs (not every such curve was filed as active); inconclusive means weak or mixed curves; inactive means flat fitted curve, though single readings scatter; the % refers to the signal ratio.

| molecule | activation |
| --- | --- |
| CC(COc1ccc(Oc2ccccc2)cc1)Oc1ccccn1 (stereo not drawn) | inactive |
| CCC#N | inactive |
| CC(C=O)Cc1ccc2c(c1)OCO2 (stereo not drawn) | inactive |

---

# measurement protocol: qHTS assay to identify small molecule antagonists of the retinoid-related orphan receptor gamma (ROR-gamma) signaling pathway - cell viability counter screen (AID 1159520); also: nearly all actives have a fitted effect of over 50% in size
# condition: Tet-on RORgamma CHO cells viability, ATP luminescence, 16 h; series mostly up to 92.4 µM
Results filed as inconclusive are left out. Active and inactive are the calls of the source. The call rests on the fitted dose curve; in most records, active means well fitted cell-killing curve with a large enough effect in the repeat runs; inconclusive means weak or mixed curves, or effect the other way; inactive means no such curve, though single readings can be large or run the other way.
Outcomes: active, inactive

| compound | category label |
| --- | --- |
| CCOP(=S)(Oc1cnc(C(C)(C)C)nc1)OC(C)C (configuration not stated) | inactive |
| O=C(CCCN1CCC(n2c(=O)[nH]c3ccccc32)CC1)c1ccc(F)cc1 | inactive |
| CCC(=O)c1ccccc1 | inactive |
| CNNC | inactive |
| CNC(=O)Oc1ccc(N(C)C)c(C)c1 | inactive |
| N#CC(CCc1ccc(Cl)cc1)(Cn1cncn1)c1ccccc1 (configuration not stated) | active |
| CC1CCCCC1NC(=O)Nc1ccccc1 (configuration not stated) | inactive |

---

# measurement protocol: qHTS RealTime-Glo MT Cell Viability Assay in HEK293 cells - 40 hour (AID 1224874); also: % is scaled to controls: 0 for no effect and ±100 for the full control effect; nearly all actives have a fitted effect of over 50% in size
# condition: RealTime-Glo luminescence; stronger effect = lower value
Results filed as inconclusive are left out.

| molecule | max response / % |
| --- | --- |
| CC(=O)Nc1cc([As](=O)(O)O)ccc1O | -9.14 |
| OCCBr | 13.1 |
| O=C(O)c1ccc2[nH]cc(CCCCN3CC=C(c4ccccc4)CC3)c2c1 | -1.51 |
| CCCCOP(=O)(O)OCCCC | 0.827 |
| CCOC(=O)/C=C(C)/C=C/C[C@@H](C)CCCC(C)C | 8.55 |
| N#CC(Cl)(Cl)Cl | 3.49 |
| COP(=S)(OC)Oc1ccc(S(N)(=O)=O)cc1 | -1.36 |
| CNC(=O)Oc1ccc(N(C)C)c(C)c1 | -14.9 |
| ClC(Cl)Br | 8.21 |
| c1ccc(N2CCNCC2)cc1 | 16.9 |
| O=C1OC(c2ccc(O)c(S(=O)(=O)O)c2)(c2ccc(O)c(S(=O)(=O)O)c2)c2c(Br)c(Br)c(Br)c(Br)c21 | 11.8 |
| CCCSP(=S)(OCC)Oc1ccc(Cl)cc1Cl (stereo unspecified) | 1.03 |
| Cc1coc2c1CCC(C)C2 (stereo unspecified) | 15.4 |
| CNCC(=O)c1ccc(O)c(O)c1 | 2.09 |
| CC(C)CC#N | 8.82 |
| Nc1cc(Cl)ccc1O | -11.2 |
| CCCSC(=O)Cl | 9.13 |
| Cc1ncsc1CCCl | 3.38 |
| ClC(Cl)(Cl)C(Cl)(Cl)Cl | 2.47 |
| CNNC | -7.62 |
| CCCCC(=O)Cl | 5.77 |
| CC1=NNC(=O)N(/N=C/c2cccnc2)C1 | 3.94 |
| COc1cc(OC)nc(NC(=O)NS(=O)(=O)c2ncccc2C(=O)N(C)C)n1 | 7.6 |
| C[N+](C)=CCl | 17.5 |
| CC(N)=S | 1.38 |
| ClC(Cl)C(Cl)Cl | 0.239 |
| CN1CCC(O)(c2ccc(F)cc2)C(C(=O)c2ccc(F)cc2)C1 (stereo unspecified) | -17.3 |
| CCCSP(=O)(OCC)Oc1ccc(Br)cc1Cl (stereo unspecified) | -3.49 |
| COC(=O)C1=CCCN(C)C1 | 3.81 |
| O=NN1CCN(N=O)CC1 | -6.3 |
| CN1CCC(N(Cc2ccccc2)c2ccccc2)CC1 | 0.452 |
| COC(=O)c1ccccc1S(=O)(=O)NC(=O)N(C)c1nc(C)nc(OC)n1 | 10.1 |
| N#CCCC#N | 17.5 |
| N#Cc1c(Cl)cccc1Cl | 18.9 |
| CCCCOC(=O)c1ccccc1N | 0.429 |
| CC1CN1P(=O)(N1CC1C)N1CC1C (stereo unspecified) | 6.96 |
| Nc1ccccc1Cl | 15.7 |
| CCN(CC)C(C)C(=O)c1ccccc1 (stereo unspecified) | 2.31 |
| CCS(=O)(=O)CCSP(=O)(OC)OC | 10.4 |
| CNC(=O)O/N=C(\C)SC | 14.5 |
| CC(C)[N+](=O)[O-] | 0.0306 |
| CCCCCCBr | 13.7 |
| CCOP(=S)(Oc1cnc(C(C)(C)C)nc1)OC(C)C (stereo unspecified) | -10.5 |
| COC(=O)c1c(C(F)F)nc(C(F)(F)F)c(C2=NCCS2)c1CC(C)C | -16.3 |
| COc1cc(OC)nc(NC(=O)NS(=O)(=O)c2ncccc2OCC(F)(F)F)n1 | 0.591 |
| CC(=O)C(Cl)Cl | 7 |
| COc1cccc(C(=O)NN(C(=O)c2cc(C)cc(C)c2)C(C)(C)C)c1C | -10 |
| COC(=O)C(c1ccccc1)C1CCCCN1 (stereo unspecified) | 2.03 |
| Clc1ccccc1N1CCNCC1 | 7.31 |
| CCOP(=S)(OCC)SCSP(=S)(OCC)OCC | 7.42 |
| Oc1c(Cl)cccc1Cl | 0.323 |
| CCC#N | 0.0723 |
| CC(Cl)(Cl)[N+](=O)[O-] | 2.41 |
| CC(C(=O)c1ccccc1)N(C)C (stereo unspecified) | 2.47 |
| CCOC(=O)CP(=O)(OCC)OCC | 0.417 |
| Cc1cc(C)c(C(=O)P(=O)(C(=O)c2c(C)cc(C)cc2C)c2ccccc2)c(C)c1 | -8.76 |
| CCOP(=S)(OCC)SCSc1ccc(Cl)cc1 | -2.07 |
| CC(C=O)Cc1ccc2c(c1)OCO2 (stereo unspecified) | 0.337 |
| Cc1cccc(C#N)c1 | 6.99 |
| CCOc1nc(C(Cl)(Cl)Cl)ns1 | 3 |
| CN1CCN(C(=O)O[C@H]2c3nccnc3C(=O)N2c2ccc(Cl)cn2)CC1 | 6.06 |
